# Assay: growth inhibition, single agent and combos, cell-based, chromothripsis tumors, cisplatin or BGB combos (AID 1671450);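 also: cells exposed to compound for four days; 0% = vehicle DMSO and 100% = cell killing by high DMSO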
# Conditions: HDN33 neuroblastoma cells, at 0.5 µM, stronger effect = higher value
Here the recorded inhibition is given for each entry.

Molecule	inhibition / %
CC1OC(CC(=O)O)CC2=C1C(=O)c1c(O)cccc1C2=O (stereo unspecified)	99.9
O=c1[nH]c(=O)n(C2CC(O)C(CO)O2)cc1I (stereo unspecified)	-18.4
NC(=O)c1cccc2[nH]c(-c3ccc(C4CCCN4)cc3F)nc12 (stereo unspecified)	15.5
Cc1cc(C)cc(C(=O)NOCCCCCC(=O)NO)c1	16.4
C[C@H](NC(=O)c1ccccc1N=Cc1c(O)ccc2ccccc12)c1ccccc1	1.7
N#Cc1ccc(OC2CCC(NC(=O)CCSc3nc4ccccc4c(=O)[nH]3)CC2)cc1 (stereo unspecified)	15.1
O=C1C(=Cc2cccnc2)C(=O)c2ccccc21	-0.8
NC(=O)c1ncn(C2OC(CO)C(O)C2O)c1O (stereo unspecified)	6.65
CC(Oc1cc(-c2cnn(C3CCNCC3)c2)cnc1N)c1c(Cl)ccc(F)c1Cl (stereo unspecified)	3.71
Cc1cn(C2C=CC(CO)O2)c(=O)[nH]c1=O (stereo unspecified)	-34.4
C=CC1=C(C)C2=CC3=NC(=C(CC(=O)O)C4=NC(=C(C)C4=C(O)O)C=c4[nH]c(c(C)c4CC)=CC1=N2)C(CCC(=O)O)C3C (stereo unspecified)	-6.06

----------
# Assay: viability loss with induced miR-34 in A549 – imaging, A549 dox-inducible miR-34, nuclei and caspase counts, primary screen (AID 1347080)
# Conditions: A549 miR-34 inducible, Hoechst nuclei count, 48 h; stronger effect = lower value; cell number ratio, induced over uninduced
Here the recorded fold change is given for each entry.

Molecule	fold change
O=C(CCCS)NC1CCN(C(=O)COc2ccc(Cl)cc2Cl)CC1	0.885
CC(C)(C)NC(=O)C1CC[C@H]2[C@@H]3CC[C@H]4NC(=O)C=C[C@]4(C)[C@@H]3CC[C@]12C (stereo partly drawn)	1.03
CCn1nccc1NC(=O)Cn1cc(-c2ccc(C(=O)N3CCCC3)cn2)cn1	0.832
CCC1=CC2CN(C1)Cc1c([nH]c3ccccc13)[C@@](C(=O)OC)(c1cc3c(cc1OC)N(C)[C@@H]1[C@@]34CCN3CC=C[C@@](CC)(C(OC(C)=O)[C@]1(O)C(=O)OC)[C@@H]34)C2 (stereo partly drawn)	1.11
CC(=O)O[C@H]1CC2(C)[C@@H](C[C@@H](O)[C@H]3[C@@]4(C)CC[C@@H](O)[C@@H](C)[C@@H]4CC[C@@]32C)C1=C(CCC=C(C)C)C(=O)O (stereo partly drawn)	0.982
COc1cc(F)c(-c2nc3c(cnn3Cc3cccs3)[nH]2)c(F)c1	0.818
Cc1sc2ncnc(-c3cccc4cccnc34)c2c1C	0.871
CCCSc1nc(NC2CC2c2ccc(F)c(F)c2)c2nnn(C3CC(OCCO)C(O)C3O)c2n1 (stereo not drawn)	0.894

----------
# Assay: MELAS cybrid and Rieske KO viability enhancers – cell-based, MELAS cybrids, Rieske KO mouse fibroblasts, CellTiter-Glo, primary screen (AID 1508586);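 also: z relative to plate mean and SD of compound and empty wells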
# Conditions: Rieske KO mouse fibroblast survival, low glucose, CellTiter-Glo 72 h
// class assignment uses z-score with these ranges: low class: < -0.2; middle class: ≥ -0.2 and < 0.5; high class: ≥ 0.5

Molecule	Answer label
Cc1ccc2c(C(=O)N3C[C@H]4CC[C@H]3C4)cc(-c3cnn(C(C)(C)C)c3)nc2c1	high class
NCC(=O)Nc1ccc(OCc2ccccc2)cc1	low class
CCNc1ncc(-c2cc(C(=O)N(C)CCN(C)C)c3cc(F)ccc3n2)cn1	low class
OCC1OC(Oc2cc(O)cc(C=Cc3ccc(O)cc3)c2)C(O)C(O)C1O (stereo not given)	low class
C=C1C[C@@]2(O)O[C@@]3(CC2C(C)C)C(C)CC[C@@H]13 (stereo not given in full)	middle class
O=C([C@@H]1C[C@H](CN2CCOCC2)CN(Cc2ccccc2)C1)N1CCCC1	low class
NC(=O)c1ccccc1-c1cccc2ccccc12	middle class
Cc1nc(NC(=O)NCC2COc3ccccc3O2)nn1C(C)C (stereo not given)	high class
Nc1nc2cc(C(=O)N3CCN(C(=O)c4ccco4)CC3)ccc2s1	low class
CC(O)Cc1cn(C2CCN(c3ncnc4nc[nH]c34)CC2)nn1 (stereo not given)	low class
CC(=O)OC1C=C2C(Cl)=C[C@@H]3[C@H](CC[C@@]4(C)[C@H]3CC[C@]4(OC(C)=O)C(C)=O)[C@@]2(C)CC1 (stereo not given in full)	high class
NC1(C(=O)NC(CCO)c2ccc(Cl)cc2)CCN(c2ncnc3[nH]ccc23)CC1 (stereo not given)	middle class
O=C(Cn1nc(Cc2ccccc2)c2ccccc2c1=O)NCCc1ccco1	high class
CC1OC(n2cc(F)c(=O)[nH]c2=O)C(O)C1O (stereo not given)	high class
c1ccc(-c2noc(-c3cccc4cccnc34)n2)nc1	high class
N[C@@H]1CCCCN(c2c(F)cc3c(=O)c(C(=O)O)cn(C4CC4)c3c2Cl)C1	low class
COCCCOc1cc(CC(CC(N)C(O)CC(C(=O)NCC(C)(C)C(N)=O)C(C)C)C(C)C)ccc1OC (stereo not given)	middle class
O=C(c1nn(Cc2ccccn2)c2c1CN(C/C=C/c1ccco1)CC2)N1CCc2ccccc2C1	low class
CC1OC(OCC2OC(Oc3c(-c4ccc(O)c(O)c4)oc4cc(O)cc(O)c4c3=O)C(O)C(O)C2O)C(O)C(O)C1O (stereo not given)	middle class
